System: ACHN
Assay: Cytotoxicity against human ACHN cells assessed as cell growth at 10 uM after 48 hrs by SRB assay relative to control
Type: functional
Details: read-out: Activity
Entries and their growth at 10 µM
Give the figure together with its unit, number first.

Some entries whose results are on file:
[
  {
    "SMILES TEXT": "Cn1cc(-c2nc(N)[nH]c(=O)c2-c2cn(C)c3ccccc23)c2ccccc21",
    "SYSTEM": "ACHN",
    "growth at 10 µM": "98.5%"
  },
  {
    "SMILES TEXT": "Cn1c2ccccc2c2c3nc(N)[nH]c(=O)c3c3c4ccccc4n(C)c3c21",
    "SYSTEM": "ACHN",
    "growth at 10 µM": "29.5%"
  },
  {
    "SMILES TEXT": "Cn1cc(-c2[nH]c(=S)[nH]c(=O)c2-c2cn(C)c3ccccc23)c2ccccc21",
    "SYSTEM": "ACHN",
    "growth at 10 µM": "95.5%"
  },
  {
    "SMILES TEXT": "Cn1cc(-c2[nH]c(=O)[nH]c(=O)c2-c2cn(C)c3ccccc23)c2ccccc21",
    "SYSTEM": "ACHN",
    "growth at 10 µM": "92.5%"
  }
]

Query string: Recorded growth at 10 µM for Cn1cc(-c2c(-c3cn(C)c4ncccc34)nc(N)[nH]c2=O)c2ccccc21 , please?
Result string: 87.6%

Query string: Query Cn1c2ccccc2c2c3c(=O)[nH]c(N)nc3c3c4cccnc4n(C)c3c21 next
Result string: 54.1%

====

Tested on: MCF7
Assay: Cytotoxicity against human MCF7 cells assessed as cell growth at 10 uM after 48 hrs by SRB assay relative to control
Type: functional
Details: MCF7, 48 h, read-out: Activity
Reported growth at 10 µM is given for each of the following molecules.
// units = %; emit number, no label

[
  {
    "SMILES TEXT": "Cn1c2ccccc2c2c3c(=O)[nH]c(N)nc3c3c4cccnc4n(C)c3c21",
    "growth at 10 µM [%]": 45.2
  },
  {
    "SMILES TEXT": "Cn1cc(-c2c(-c3cn(C)c4ncccc34)nc(N)[nH]c2=O)c2ccccc21",
    "growth at 10 µM [%]": 86
  },
  {
    "SMILES TEXT": "Cn1c2ccccc2c2c3nc(N)[nH]c(=O)c3c3c4ccccc4n(C)c3c21",
    "growth at 10 µM [%]": 25
  },
  {
    "SMILES TEXT": "Cn1cc(-c2[nH]c(=O)[nH]c(=O)c2-c2cn(C)c3ccccc23)c2ccccc21",
    "growth at 10 µM [%]": 60.1
  },
  {
    "SMILES TEXT": "Cn1cc(-c2nc(N)[nH]c(=O)c2-c2cn(C)c3ccccc23)c2ccccc21",
    "growth at 10 µM [%]": 77.6
  }
]

Continue with the next molecule.
Query string: Dear colleague, I am looking for the recorded growth at 10 µM of the following molecule: Cn1cc(-c2[nH]c(=S)[nH]c(=O)c2-c2cn(C)c3ccccc23)c2ccccc21
Result string: 68.2

====

Item-by-item account of growth at 10 µM
Test system: SK-MEL-28
Test: Cytotoxicity against human SK-MEL-28 cells assessed as cell growth at 10 uM after 48 hrs by SRB assay relative to control
Format: functional
Details: SK-MEL-28, 48 h, read-out: Activity
The reply should be a number in %, with the unit left off.

See these solved cases before continuing.
[
  {
    "SMILES TEXT": "Cn1cc(-c2c(-c3cn(C)c4ncccc34)nc(N)[nH]c2=O)c2ccccc21",
    "growth at 10 µM / %": 11
  },
  {
    "SMILES TEXT": "Cn1c2ccccc2c2c3c(=O)[nH]c(N)nc3c3c4cccnc4n(C)c3c21",
    "growth at 10 µM / %": 120
  },
  {
    "SMILES TEXT": "Cn1cc(-c2[nH]c(=S)[nH]c(=O)c2-c2cn(C)c3ccccc23)c2ccccc21",
    "growth at 10 µM / %": 104
  },
  {
    "SMILES TEXT": "Cn1c2ccccc2c2c3nc(N)[nH]c(=O)c3c3c4ccccc4n(C)c3c21",
    "growth at 10 µM / %": 91
  },
  {
    "SMILES TEXT": "Cn1cc(-c2nc(N)[nH]c(=O)c2-c2cn(C)c3ccccc23)c2ccccc21",
    "growth at 10 µM / %": 118
  }
]

Okay, now this molecule:
Query string: Look up growth at 10 µM for this molecule: Cn1cc(-c2[nH]c(=O)[nH]c(=O)c2-c2cn(C)c3ccccc23)c2ccccc21
Result string: 103

====

Reported growth at 10 µM values follow for various molecules
Tested on: SF-295
Test: Cytotoxicity against human SF295 cells assessed as cell growth at 10 uM after 48 hrs by SRB assay relative to control
Type: functional
Conditions: SF-295, 48 h, read-out: Activity

Below, each entry is followed by its recorded growth at 10 µM result.
[
  {
    "SMILES TEXT": "Cn1c2ccccc2c2c3c(=O)[nH]c(N)nc3c3c4cccnc4n(C)c3c21",
    "growth at 10 µM": "94.1%"
  },
  {
    "SMILES TEXT": "Cn1cc(-c2[nH]c(=S)[nH]c(=O)c2-c2cn(C)c3ccccc23)c2ccccc21",
    "growth at 10 µM": "94.2%"
  },
  {
    "SMILES TEXT": "Cn1c2ccccc2c2c3nc(N)[nH]c(=O)c3c3c4ccccc4n(C)c3c21",
    "growth at 10 µM": "86.6%"
  }
]

Query string: Endpoint output: growth at 10 µM of Cn1cc(-c2[nH]c(=O)[nH]c(=O)c2-c2cn(C)c3ccccc23)c2ccccc21 . Value?
Result string: 97.1%

Query string: Okay, and Cn1cc(-c2c(-c3cn(C)c4ncccc34)nc(N)[nH]c2=O)c2ccccc21 ?
Result string: 98.2%

Query string: Same again, this time with Cn1cc(-c2nc(N)[nH]c(=O)c2-c2cn(C)c3ccccc23)c2ccccc21
Result string: 90.7%

====

Biological target: Cyclin-dependent kinase 2 (Homo sapiens)
pIC50: −log10 of the molar value.
MEASURED QUANTITY: pIC50

Query string: Using the record for Cn1c2ccccc2c2c3c(c4c5ccccc5n(CC(O)CO)c4c21)C(=O)NC3=O (stereo unspecified) , report its pIC50.
Result string: > 7.22

====

System: SNB-19
Test: Cytotoxicity against human SNB19 cells assessed as cell growth at 10 uM after 48 hrs by SRB assay relative to control
Type: functional
Conditions: SNB-19, 48 h, read-out: Activity
MEASURED QUANTITY: growth at 10 µM
Note: state the figure and append the unit.

[
  {
    "SMILES TEXT": "Cn1cc(-c2c(-c3cn(C)c4ncccc34)nc(N)[nH]c2=O)c2ccccc21",
    "growth at 10 µM": "111%"
  },
  {
    "SMILES TEXT": "Cn1c2ccccc2c2c3c(=O)[nH]c(N)nc3c3c4cccnc4n(C)c3c21",
    "growth at 10 µM": "103%"
  },
  {
    "SMILES TEXT": "Cn1cc(-c2[nH]c(=S)[nH]c(=O)c2-c2cn(C)c3ccccc23)c2ccccc21",
    "growth at 10 µM": "105%"
  },
  {
    "SMILES TEXT": "Cn1c2ccccc2c2c3nc(N)[nH]c(=O)c3c3c4ccccc4n(C)c3c21",
    "growth at 10 µM": "122%"
  },
  {
    "SMILES TEXT": "Cn1cc(-c2nc(N)[nH]c(=O)c2-c2cn(C)c3ccccc23)c2ccccc21",
    "growth at 10 µM": "111%"
  }
]

Shift focus to the following entry.
Query string: growth at 10 µM for Cn1cc(-c2[nH]c(=O)[nH]c(=O)c2-c2cn(C)c3ccccc23)c2ccccc21 ?
Result string: 109%

====

System: OVCAR-8
Test: Cytotoxicity against human OVCAR8 cells assessed as cell growth at 10 uM after 48 hrs by SRB assay relative to control
Format: functional
Conditions: OVCAR-8, 48 h, read-out: Activity
Recorded growth at 10 µM for the following compounds
Form entry: value (%) — number only.

Solved entries (count: 3):
[
  {
    "SMILES TEXT": "Cn1cc(-c2c(-c3cn(C)c4ncccc34)nc(N)[nH]c2=O)c2ccccc21",
    "growth at 10 µM / %": 95.8
  },
  {
    "SMILES TEXT": "Cn1c2ccccc2c2c3c(=O)[nH]c(N)nc3c3c4cccnc4n(C)c3c21",
    "growth at 10 µM / %": 60.1
  },
  {
    "SMILES TEXT": "Cn1cc(-c2nc(N)[nH]c(=O)c2-c2cn(C)c3ccccc23)c2ccccc21",
    "growth at 10 µM / %": 97.5
  }
]

Query string: What growth at 10 µM value was documented for this compound, Cn1c2ccccc2c2c3nc(N)[nH]c(=O)c3c3c4ccccc4n(C)c3c21 ?
Result string: 43.1

Query string: // repeat for Cn1cc(-c2[nH]c(=S)[nH]c(=O)c2-c2cn(C)c3ccccc23)c2ccccc21 and report
Result string: 102

Query string: Try this compound too: Cn1cc(-c2[nH]c(=O)[nH]c(=O)c2-c2cn(C)c3ccccc23)c2ccccc21
Result string: 98.1
